Listing of pIC50 toward PIK3CG (human) (UniProt P48736), each taken from a published source.
pIC50: −log10 of the molar value.
Tag: satisfied if measured pIC50 is not below 6, not satisfied if it is.

[[record]]
molecule = "C=CC(=O)Nc1ccc(NS(=O)(=O)c2cccc(Nc3ncc4c(n3)N(C)c3ccc(C)cc3C(=O)N4C)c2)cc1"
test_system = "PIK3CG (human) (UniProt P48736)"
group_label = "satisfied"

[[record]]
molecule = "C[C@H](Nc1ncnc2cccc(F)c12)c1nc2cccc(-c3cncnc3)c2c(=O)n1-c1ccccc1"
test_system = "PIK3CG (human) (UniProt P48736)"
group_label = "not satisfied"

[[record]]
molecule = "Nc1nc2cc(-c3nn(C4CC(O)C4)c4ncnc(N)c34)ccc2o1 (stereo not drawn)"
test_system = "PIK3CG (human) (UniProt P48736)"
group_label = "satisfied"

[[record]]
molecule = "Cn1cc(/C=C2\\Oc3cccc(O)c3C2=O)c2c(O)ccnc21"
test_system = "PIK3CG (human) (UniProt P48736)"
group_label = "not satisfied"

[[record]]
molecule = "Cc1cccc2cc([C@H](C)Nc3ncnc4[nH]cc(C(N)=O)c34)n(-c3ccccc3)c(=O)c12"
test_system = "PIK3CG (human) (UniProt P48736)"
group_label = "satisfied"

[[record]]
molecule = "Cc1ccccc1-n1c(Cn2nc(C#CC3CC3)c3c(N)ncnc32)nc2nccc(C)c2c1=O"
test_system = "PIK3CG (human) (UniProt P48736)"
group_label = "not satisfied"

[[record]]
molecule = "CNC(=O)[C@H](C)Cn1cnc2ccc(-c3cnc(OC)c(NS(=O)(=O)c4ccc(F)cc4F)c3)cc2c1=O"
test_system = "PIK3CG (human) (UniProt P48736)"
group_label = "satisfied"

[[record]]
molecule = "COC(=O)c1ccc(NC(=O)Nc2ccc(-c3nc(N4CCOCC4)c4ccn(CC(F)(F)F)c4n3)cc2)cc1"
test_system = "PIK3CG (human) (UniProt P48736)"
group_label = "not satisfied"

[[record]]
molecule = "Cc1nc(NC(=O)CCCN[C@@H](CO)C(=O)OC2CCCC2)sc1-c1ccc(Cl)c(S(C)(=O)=O)c1"
test_system = "PIK3CG (human) (UniProt P48736)"
group_label = "not satisfied"

[[record]]
molecule = "Cc1cccc2cc(Cn3nc(-c4cnn(CCO)c4)c4c(N)ncnc43)n(-c3ccccc3F)c(=O)c12"
test_system = "PIK3CG (human) (UniProt P48736)"
group_label = "satisfied"

[[record]]
molecule = "N#CCc1ccc(Nc2ncnc3ccc(-c4ccc5c(c4)OCO5)cc23)cc1"
test_system = "PIK3CG (human) (UniProt P48736)"
group_label = "satisfied"


----------
Listing of pIC50 toward UniProt:P48736, each taken from a published source.
pIC50: −log10 of the molar value.
METRIC: pIC50

[[record]]
structure_notation = "CC(C)n1ccc2c(N3CCOCC3)nc(-c3ccc(NC(=O)Nc4ccc(C(=O)NCCN5CCCC5)cc4)cc3)nc21"
test_system = "UniProt:P48736"
result_comparator = "="
value_observed = 7.06

[[record]]
structure_notation = "C[C@H](Nc1ccc2c(c1)OCCn1cc(N3C(=O)COC[C@H]3C(F)F)nc1-2)C(N)=O"
test_system = "UniProt:P48736"
result_comparator = "="
value_observed = 7.10

[[record]]
structure_notation = "C=CC(=O)N1CCN(S(=O)(=O)c2ccc(Nc3ncc4c(n3)N(C)c3ccc(C)cc3C(=O)N4C)cc2)CC1"
test_system = "UniProt:P48736"
result_comparator = "="
value_observed = 6.64

[[record]]
structure_notation = "Cc1ccccc1-n1c(Cn2nc(C#CCO)c3c(N)ncnc32)cc2cccc(C)c2c1=O"
test_system = "UniProt:P48736"
result_comparator = ">"
value_observed = 6.00

[[record]]
structure_notation = "Cc1nn(C)cc1-c1cc(N2CCOCC2)c2nc(C(=O)N3CCC(N4C[C@@H](C)O[C@@H](C)C4)CC3)[nH]c2n1"
test_system = "UniProt:P48736"
result_comparator = "<"
value_observed = 6.00

[[record]]
structure_notation = "COc1ccc(Nc2nc(-c3ccccc3)nc3c2cnn3C2CCNCC2)cc1OC"
test_system = "UniProt:P48736"
result_comparator = "="
value_observed = 5.11

